Origin of the recorded values: the supplement of paper PMC4932681

# drug sensitivity score listing for each entry below
Tested on: BT-474
Assay: drug sensitivity score (DSS) (DSS (dimensionless)); higher = more sensitive; extreme values may be limits of the assay
Conditions: 4-OH-tamoxifen in medium 0 µM; 72 h
No unit in the answer, only the number.

Below, 3 molecules whose answers are already recorded.
> print(dat)
                                   molecule  systemname  valuemeasured
1                  Nc1nc2[nH]cnc2c(=S)[nH]1      BT-474         0.0001
2  C[C@H]1C[C@@H]2[C@H]([C@@H](O)C[C@@]3(C)[C@H]2CC[C@]3(O)C(=O)CO)[C@@]2(C)C=CC(=O)C=C12      BT-474              0
3                           NCC(=O)CCC(=O)O      BT-474              0

Endpoint output: drug sensitivity score of O=P1(NCCCl)OCCCN1CCCl (stereo not given) [Ifosfamide] . Value?
0

Endpoint output: drug sensitivity score of CCN(CC)CCNC(=O)c1c(C)[nH]c(/C=C2\C(=O)Nc3ccc(F)cc32)c1C . Value?
0

----------
Tested on: T-47D Tam1
Assay: drug sensitivity score (DSS) (DSS (dimensionless)); higher = more sensitive; extreme values may be limits of the assay
Settings: 4-OH-tamoxifen in medium 1 µM; 72 h
Structures can show the parent of a compound that is named as a salt.
metricName: drug sensitivity score
No unit in the answer, only the number.

molecule	systemName	drug sensitivity score
CC/C(=C(\c1ccccc1)c1ccc(OCCN(C)C)cc1)c1ccccc1 [Tamoxifen citrate]	T-47D Tam1	0.576

Endpoint output: drug sensitivity score of Oc1ncnc2[nH]ncc12 . Value?
0

Endpoint output: drug sensitivity score of Cn1cc(C2=C(c3cn(C4CCN(Cc5ccccn5)CC4)c4ccccc34)C(=O)NC2=O)c2ccccc21 . Value?
0

Endpoint output: drug sensitivity score of CNCc1ccc(-c2[nH]c3cc(F)cc4c3c2CCNC4=O)cc1 . Value?
0

Endpoint output: drug sensitivity score of Cc1ccc(-n2nc(C(C)(C)C)cc2NC(=O)Nc2ccc(OCCN3CCOCC3)c3ccccc23)cc1 . Value?
0.342

Endpoint output: drug sensitivity score of C[C@]12CC[C@@H]3c4ccc(O)cc4C[C@@H](CCCCCCCCC[S+]([O-])CCCC(F)(F)C(F)(F)F)[C@H]3[C@@H]1CC[C@@H]2O (stereo partly drawn) . Value?
0.0366

Endpoint output: drug sensitivity score of CN(N=O)C(=O)N[C@@H](C=O)[C@@H](O)[C@H](O)[C@H](O)CO . Value?
0

Endpoint output: drug sensitivity score of CO[C@H]1C[C@@H]2CC[C@@H](C)[C@@](O)(O2)C(=O)C(=O)N2CCCC[C@H]2C(=O)O[C@H]([C@H](C)C[C@@H]2CC[C@@H](OCCO)[C@H](OC)C2)CC(=O)[C@H](C)/C=C(\C)[C@@H](O)[C@@H](OC)C(=O)[C@H](C)C[C@H](C)/C=C/C=C/C=C/1C . Value?
4.62

----------
Test system: T-47D Tam2
Assay: viability inhibition at highest dose (% inhibition); higher = more growth inhibition
Conditions: 4-OH-tamoxifen in medium 1 µM; 72 h
# viability inhibition at highest dose listing for each entry below
No unit in the answer, only the number.

Below, 3 molecules whose answers are already recorded.
> print(dat)
                                   molecule  systemname                            metricname  valuemeasured
1  CC(C)C[C@@H](C(=O)N[C@H](C(=O)OC1CCCC1)c1ccccc1)[C@H](O)C(=O)NO [Tosedostat (CHR 2797)] (drug 10000 nM)  T-47D Tam2  viability inhibition at highest dose           48.2
2  Nc1ncn([C@H]2C[C@H](O)[C@@H](CO)O2)c(=O)n1 [Decitabine (Dacogen)] (drug 10000 nM)  T-47D Tam2  viability inhibition at highest dose          -3.18
3  C[C@]12CC[C@H](O)CC1=CC[C@@H]1[C@@H]2CC[C@]2(C)C(c3cccnc3)=CC[C@@H]12 [Abiraterone (CB-7598)] (drug 5000 nM)  T-47D Tam2  viability inhibition at highest dose          -1.44

Endpoint output: viability inhibition at highest dose of CCc1c2c(nc3ccc(OC(=O)N4CCC(N5CCCCC5)CC4)cc13)-c1cc3c(c(=O)n1C2)COC(=O)[C@]3(O)CC [Irinotecan] (drug 10000 nM) . Value?
23.3

----------
# relative IC50 listing for each entry below
Test system: T-47D Tam1
Assay: relative IC50 (midpoint of fitted logistic curve, plateau may be below 50% inhibition; CellTiter-Glo viability); higher = less potent
Conditions: 4-OH-tamoxifen in medium 1 µM; 72 h
Give the value in nM but do not write nM after it.

Below, 5 molecules whose answers are already recorded.
> print(dat)
                                   molecule  systemname  valuemeasured
1  Cc1sc2c(c1C)C(c1ccc(Cl)cc1)=N[C@@H](CC(=O)OC(C)(C)C)c1nnc(C)n1-2 [(+)JQ1]  T-47D Tam1            146
2  Cn1cnc2c(F)c(Nc3ccc(Br)cc3Cl)c(C(=O)NOCCO)cc21  T-47D Tam1            975
3  CC(=O)[C@]1(O)Cc2c(O)c3c(c(O)c2[C@@H](O[C@H]2C[C@H](N)[C@H](O)[C@H](C)O2)C1)C(=O)c1ccccc1C3=O  T-47D Tam1            123
4  N#CCNC(=O)c1ccc(-c2ccnc(Nc3ccc(N4CCOCC4)cc3)n2)cc1  T-47D Tam1            346
5               O=C(CCCCCCC(=O)Nc1ccccc1)NO  T-47D Tam1           1650

Endpoint output: relative IC50 of CC[C@@]1(O)C(=O)OCc2c1cc1n(c2=O)Cc2cc3ccccc3nc2-1 . Value?
32.6

Endpoint output: relative IC50 of COc1ccc(S(=O)(=O)Nc2cccnc2Nc2ccc(O)cc2)cc1 . Value?
1170

Endpoint output: relative IC50 of CC(C)n1cnc2c(NCCc3ccc(O)cc3)nc(-c3csc4ccccc34)nc21 . Value?
3410

Endpoint output: relative IC50 of COC(=O)C[C@](O)(CCCC(C)(C)O)C(=O)O[C@@H]1C(OC)=C[C@]23CCCN2CCc2cc4c(cc2[C@H]13)OCO4 . Value?
93.7

Endpoint output: relative IC50 of COc1c(C)cnc(Cn2cnc3c(Cl)nc(N)nc32)c1C . Value?
175

----------
# drug sensitivity score listing for each entry below
Tested on: ZR-75-1
Assay: drug sensitivity score (DSS) (DSS (dimensionless)); higher = more sensitive; extreme values may be limits of the assay
Settings: 4-OH-tamoxifen in medium 0 µM; 72 h
No unit in the answer, only the number.

Below, 7 compounds whose answers are already recorded.
> print(dat)
                                   compound  valuemeasured
1  Cc1ccc(-c2cc(C(F)(F)F)nn2-c2ccc(S(N)(=O)=O)cc2)cc1              0
2  O=C1NC(=O)[C@@H](c2cn3c4c(cccc24)CCC3)[C@@H]1c1c[nH]c2ccccc12          0.524
3  CN(C)CCOc1ccc(/C(=C(/CCCl)c2ccccc2)c2ccccc2)cc1 [Toremifene (citrate)]              0
4  OC[C@H]1O[C@@H](n2cnc3c2N=CNC[C@H]3O)C[C@@H]1O           4.39
5  COc1ccc(S(=O)(=O)Nc2cccnc2Nc2ccc(O)cc2)cc1           5.44
6  Cc1ccc(NC(=O)c2ccc(CN3CCN(C)CC3)cc2)cc1Nc1nccc(-c2cccnc2)n1              0
7  CC[C@@H]1C(=O)N(C)c2cnc(Nc3ccc(C(=O)NC4CCN(C)CC4)cc3OC)nc2N1C1CCCC1           2.89

Note: attention shifts to another entry.
Endpoint output: drug sensitivity score of CCOc1cc2ncc(C#N)c(Nc3ccc(OCc4ccccn4)c(Cl)c3)c2cc1NC(=O)/C=C/CN(C)C . Value?
0

----------
Test system: T-47D Tam1
Experiment: relative IC50 (midpoint of fitted logistic curve, plateau may be below 50% inhibition; CellTiter-Glo viability); higher = less potent
Details: 4-OH-tamoxifen in medium 1 µM; 72 h
Classification field: yes = relative IC50 at or over 40 nM; no = relative IC50 under 40 nM.

compound	category
O=C(O)C(=O)O.[NH-][C@@H]1CCCC[C@H]1[NH-].[Pt+2]	yes
C=CCn1c(=O)c2cnc(Nc3ccc(N4CCN(C)CC4)cc3)nc2n1-c1cccc(C(C)(C)O)n1	yes
O=C1c2c(O)ccc(O)c2C(=O)c2c(NCCNCCO)ccc(NCCNCCO)c21	no
Nc1nc(Cl)nc2c1ncn2[C@@H]1O[C@H](CO)[C@@H](O)[C@@H]1F	yes
COc1cccc2c1C(=O)c1c(O)c3c(c(O)c1C2=O)C[C@@](O)(C(C)=O)C[C@@H]3O[C@H]1C[C@H](N)[C@H](O)[C@H](C)O1	yes

Hi, just wondering whether C=CCN(/C=C1/C(=O)O[C@H](COC)[C@@]2(C)C1=C(O)C(=O)C1=C2[C@H](OC(C)=O)C[C@]2(C)C(=O)CC[C@@H]12)CC=C shows relative IC50 of 40 nM or higher.
yes

Hi, just wondering whether Cc1c2oc3c(C)ccc(C(=O)N[C@@H]4C(=O)N[C@H](C(C)C)C(=O)N5CCC[C@H]5C(=O)N(C)CC(=O)N(C)[C@@H](C(C)C)C(=O)O[C@@H]4C)c3nc-2c(C(=O)N[C@@H]2C(=O)N[C@H](C(C)C)C(=O)N3CCC[C@H]3C(=O)N(C)CC(=O)N(C)[C@@H](C(C)C)C(=O)O[C@@H]2C)c(N)c1=O shows relative IC50 of 40 nM or higher.
no

Hi, just wondering whether COC1=CC(c2cc3ccccc3[nH]2)=N/C1=C\c1[nH]c(C)cc1C shows relative IC50 of 40 nM or higher.
yes
